Reported IC50, α-glucosidase GAA (Myozyme) (Homo sapiens).
Express it in µM; write the number only.

// worked examples, IC50 included
{"compound": "O=S1(=O)N[C@@H]2[C@H](O)[C@@H](O)[C@H](O)[C@@H](CO)[C@@H]2O1 [compound 4, 1,6-epi-cyclophellitol cyclosulfamidate]", "test readout": "IC50", "value unit": "µM", "result value": 5.17}
{"compound": "O=S1(=O)N[C@H]2[C@H](CO)[C@@H](O)[C@H](O)[C@@H](O)[C@H]2O1", "test readout": "IC50", "value unit": "µM", "result value": 112}
{"compound": "CCCCN1C[C@H](O)[C@@H](O)[C@H](O)[C@H]1CO [compound 2, N-butyldeoxynojirimycin, reference compound]", "test readout": "IC50", "value unit": "µM", "result value": 26.7}

Read the next record carefully.
Look at this compound and give its reported IC50. O=S1(=O)O[C@@H]2[C@H](O)[C@@H](O)[C@H](O)[C@@H](CO)[C@@H]2O1 [compound 3, 1,6-epi-cyclophellitol cyclosulfate, reference compound]
0.048

* * *

Biological target: β-glucosidase GBA2 (Homo sapiens)
Construct: expressed in transfected cells; host or cells: HEK293T
Sequence (Q9HCG7 whole entry): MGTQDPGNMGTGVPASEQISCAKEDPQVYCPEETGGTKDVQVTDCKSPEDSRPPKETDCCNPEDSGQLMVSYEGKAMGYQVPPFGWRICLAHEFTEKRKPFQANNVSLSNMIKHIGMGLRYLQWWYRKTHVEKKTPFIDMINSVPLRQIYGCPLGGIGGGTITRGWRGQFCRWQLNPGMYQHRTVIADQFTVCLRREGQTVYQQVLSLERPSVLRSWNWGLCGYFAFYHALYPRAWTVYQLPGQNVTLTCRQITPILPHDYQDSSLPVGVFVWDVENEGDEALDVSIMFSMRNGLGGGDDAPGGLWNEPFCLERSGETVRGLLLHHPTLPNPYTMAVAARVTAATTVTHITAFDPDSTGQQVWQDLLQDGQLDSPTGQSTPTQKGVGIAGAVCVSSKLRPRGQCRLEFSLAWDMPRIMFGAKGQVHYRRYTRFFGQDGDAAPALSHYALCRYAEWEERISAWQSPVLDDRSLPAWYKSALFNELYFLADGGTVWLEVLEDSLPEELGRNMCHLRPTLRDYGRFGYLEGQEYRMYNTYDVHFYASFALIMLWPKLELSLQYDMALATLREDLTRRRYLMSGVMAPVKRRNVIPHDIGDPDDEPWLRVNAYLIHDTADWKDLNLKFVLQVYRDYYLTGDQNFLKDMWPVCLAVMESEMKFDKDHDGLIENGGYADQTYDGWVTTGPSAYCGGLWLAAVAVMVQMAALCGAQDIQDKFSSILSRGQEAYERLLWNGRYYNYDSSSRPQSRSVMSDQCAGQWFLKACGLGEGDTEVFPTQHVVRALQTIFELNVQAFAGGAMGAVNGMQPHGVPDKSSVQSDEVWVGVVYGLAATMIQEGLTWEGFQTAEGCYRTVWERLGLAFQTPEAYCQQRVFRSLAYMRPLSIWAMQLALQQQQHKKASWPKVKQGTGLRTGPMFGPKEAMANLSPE
Experiment: in vitro apparent IC50, GBA2-overexpressing HEK293T lysate
Assay type: biochemical
Settings: apparent IC50, pH 5.8, mean ± SD
test readout: IC50

Consider the following illustrative entries.
{"compound": "O=S1(=O)N[C@@H]2[C@H](O)[C@@H](O)[C@H](O)[C@@H](CO)[C@@H]2N1 [compound 8]", "IC50": "> 500 µM"}
{"compound": "O=S1(=O)N[C@H]2[C@H](CO)[C@@H](O)[C@H](O)[C@@H](O)[C@H]2O1 [compound 6]", "IC50": "> 500 µM"}

Lab note: next compound to report on.
# lookup: IC50 of O=S1(=O)N[C@@H]2[C@H](O)[C@@H](O)[C@H](O)[C@@H](CO)[C@@H]2O1 [compound 4, 1,6-epi-cyclophellitol cyclosulfamidate]
> 500 µM
